Target: Receptor tyrosine-protein kinase erbB-2 (Homo sapiens); further: in other assays of this panel Not Active means under 50% inhibition at 10 µM;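 further: inhibition of HER2 kinase enzyme activity, measured with Poly(Glu:Tyr) as the phosphorylation substrate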
Sequence (P04626 whole entry): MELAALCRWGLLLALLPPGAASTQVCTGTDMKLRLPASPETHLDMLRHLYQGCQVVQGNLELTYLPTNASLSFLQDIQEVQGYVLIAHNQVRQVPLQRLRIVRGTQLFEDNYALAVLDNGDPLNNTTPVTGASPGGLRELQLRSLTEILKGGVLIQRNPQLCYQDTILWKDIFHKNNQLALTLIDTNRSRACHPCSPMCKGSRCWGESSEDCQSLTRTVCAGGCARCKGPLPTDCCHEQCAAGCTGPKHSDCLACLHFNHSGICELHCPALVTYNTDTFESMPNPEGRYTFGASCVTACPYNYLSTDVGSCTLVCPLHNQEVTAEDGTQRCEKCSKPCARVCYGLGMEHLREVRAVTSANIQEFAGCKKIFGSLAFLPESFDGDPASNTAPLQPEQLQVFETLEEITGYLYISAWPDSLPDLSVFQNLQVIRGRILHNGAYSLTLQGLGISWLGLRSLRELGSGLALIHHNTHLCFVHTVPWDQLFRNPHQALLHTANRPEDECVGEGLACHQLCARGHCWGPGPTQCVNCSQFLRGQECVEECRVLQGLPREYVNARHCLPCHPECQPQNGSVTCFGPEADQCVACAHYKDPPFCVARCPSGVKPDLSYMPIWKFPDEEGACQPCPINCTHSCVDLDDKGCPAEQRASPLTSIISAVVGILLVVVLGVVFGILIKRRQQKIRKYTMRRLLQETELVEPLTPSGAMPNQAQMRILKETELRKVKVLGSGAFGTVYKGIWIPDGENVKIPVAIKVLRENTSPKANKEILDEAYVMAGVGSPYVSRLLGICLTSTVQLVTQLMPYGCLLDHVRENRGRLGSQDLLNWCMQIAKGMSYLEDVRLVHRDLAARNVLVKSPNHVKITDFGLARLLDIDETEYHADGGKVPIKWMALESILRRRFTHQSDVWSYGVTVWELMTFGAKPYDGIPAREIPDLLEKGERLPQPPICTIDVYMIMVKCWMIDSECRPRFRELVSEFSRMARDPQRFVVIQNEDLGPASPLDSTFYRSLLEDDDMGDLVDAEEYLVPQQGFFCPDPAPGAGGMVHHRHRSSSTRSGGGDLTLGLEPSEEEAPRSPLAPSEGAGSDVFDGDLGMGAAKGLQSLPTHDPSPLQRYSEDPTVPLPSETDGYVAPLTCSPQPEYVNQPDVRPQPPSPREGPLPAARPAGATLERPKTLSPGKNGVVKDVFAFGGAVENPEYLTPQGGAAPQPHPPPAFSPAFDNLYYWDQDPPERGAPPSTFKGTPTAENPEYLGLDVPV
Assay: biochemical
Type: cell-based, Insect cells
Details: insect cells
Measured attribute: IC50

Some entries whose results are on file:
* Cc1ccc(C(=O)C(C)CN2CCCCC2)cc1 (centres undefined) | Not Active
* CNCCC=C1c2ccccc2CCc2ccccc21 | Not Active
* CC1(C)[C@@H](O[C@H]2O[C@H](C(=O)O)[C@@H](O)[C@H](O)[C@H]2O[C@@H]2O[C@H](C(=O)O)[C@@H](O)[C@H](O)[C@H]2O)CC[C@]2(C)[C@H]3C(=O)C=C4[C@@H]5C[C@@](C)(C(=O)O)CC[C@]5(C)CC[C@@]4(C)[C@]3(C)CC[C@@H]12 | Not Active
* C[C@]12CCC(=O)C=C1CC[C@@H]1[C@@H]2C(=O)C[C@@]2(C)[C@H]1CC[C@]2(O)C(=O)CO | Not Active
* CN1[C@@H]2CC[C@H]1C[C@@H](OC(=O)c1c[nH]c3ccccc13)C2 | Not Active

Read off the recorded IC50 for "Cn1cnc([N+](=O)[O-])c1Sc1ncnc2nc[nH]c12"
Not Active

Read off the recorded IC50 for CN(C)CCCC1(c2ccc(F)cc2)OCc2cc(C#N)ccc21 (centres undefined)
Not Active

Read off the recorded IC50 for N=C(N)NCCCCNC(=N)N.O=S(=O)(O)O [ARCAINE SULFATE]
Not Active

Read off the recorded IC50 for Clc1ccc(C(c2ccccc2Cl)C(Cl)Cl)cc1 (centres undefined)
Not Active

Read off the recorded IC50 for "C=C1CC[C@H](O)C/C1=C/C=C1\CCC[C@]2(C)[C@@H]([C@H](C)/C=C/[C@H](C)C(C)C)CC[C@@H]12"
Not Active

----------
Target: Cholecystokinin receptor type A (Homo sapiens, UniProt P32238); further: in other assays of this panel Not Active means under 50% inhibition at 10 µM
Sequence (P32238 whole entry): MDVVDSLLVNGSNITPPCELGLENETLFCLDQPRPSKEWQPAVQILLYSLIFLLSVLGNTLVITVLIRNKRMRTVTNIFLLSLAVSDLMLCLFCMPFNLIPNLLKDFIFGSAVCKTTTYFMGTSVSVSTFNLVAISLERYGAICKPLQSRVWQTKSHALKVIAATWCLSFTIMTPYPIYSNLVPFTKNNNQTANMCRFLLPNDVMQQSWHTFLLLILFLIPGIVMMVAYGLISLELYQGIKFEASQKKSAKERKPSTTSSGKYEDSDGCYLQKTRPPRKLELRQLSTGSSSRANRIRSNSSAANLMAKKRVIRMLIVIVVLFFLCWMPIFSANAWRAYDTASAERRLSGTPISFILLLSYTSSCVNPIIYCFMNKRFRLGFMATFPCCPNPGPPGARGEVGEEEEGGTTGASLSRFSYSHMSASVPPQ
Type: cell membranes, Membrane
Conditions: 1321-n1
Measured attribute: IC50

* CC(C)NC[C@H](O)COc1cccc2[nH]ccc12 | Not Active
* CO[C@@H]1[C@@H](O[C@@H]2O[C@H](C)[C@@H](O[C@H]3C[C@@](C)(O)[C@@H](OC(=O)CC(C)C)[C@H](C)O3)[C@H](N(C)C)[C@H]2O)[C@@H](CC=O)C[C@@H](C)[C@@H](O)/C=C/C=C/C[C@@H](C)OC(=O)C[C@H]1O [KITASAMYCIN] | Not Active
* COc1ccc(CCN2CCC(Nc3nc4ccccc4n3Cc3ccc(F)cc3)CC2)cc1 [ASTEMIZOLE] | Not Active

----------
Assay: DRUGMATRIX: Interleukin IL-1 radioligand binding (ligand: [125I] interleukin 1beta)
Assay type: cell membranes, Membrane
Details: nih3t3; Not Active = under 50% inhibition at 10 µM
Measured attribute: IC50

Some entries whose results are on file:
* COc1c(N2CCNC(C)C2)c(F)cc2c(=O)c(C(=O)O)cn(C3CC3)c12 (stereo not drawn) | Not Active
* CCC[C@@H]1C[C@@H](C(=O)N[C@@H]([C@H]2O[C@H](SC)[C@H](O)[C@@H](O)[C@H]2O)[C@@H](C)O)N(C)C1 | Not Active
* COCc1c(C(C)C)nc(C(C)C)c(/C=C/[C@@H](O)C[C@@H](O)CC(=O)O)c1-c1ccc(F)cc1 | Not Active
* CNCCC=C1c2ccccc2CCc2ccccc21 | Not Active
* Cn1cnc([N+](=O)[O-])c1Sc1ncnc2nc[nH]c12 | Not Active

Read off the recorded IC50 for "COC(=O)C1=C(C)NC(C)=C(C(=O)OC)C1c1ccccc1[N+](=O)[O-]"
Not Active

Read off the recorded IC50 for "COS(C)(=O)=O"
Not Active

Read off the recorded IC50 for "C[C@]12Cc3c[nH]nc3C[C@@H]1CC[C@@H]1[C@@H]2CC[C@@]2(C)[C@H]1CC[C@]2(C)O"
Not Active
